# TARGET: T1, Bfl-1, Q16548
# T1 chain: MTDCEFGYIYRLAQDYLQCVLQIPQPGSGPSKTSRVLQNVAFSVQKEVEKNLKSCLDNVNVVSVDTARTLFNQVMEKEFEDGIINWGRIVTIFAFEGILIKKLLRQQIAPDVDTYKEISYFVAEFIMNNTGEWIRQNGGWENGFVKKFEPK
# ASSAY REMARKS: peptide SPOT array, c-Myc-tagged receptor at 1 uM or 100 nM, anti-c-Myc-Cy3
OBSERVATION TYPE: SPOT signal as a fraction of Bim BH3's signal on the same receptor and array

Observe how each entry below is paired with its result.
INSERT INTO results (binder, endpoint_value) VALUES
  ('KLALEQRCRELRARLRRLEETLPRRI [KIF19]', 1.04),
  ('LWAAQRYGRELRRMLDEFVDSFKKGL [BAD]', 0.42),
  ('IKKSVTKGEMLKIVGKRFREHFPEIL [MAGEB2]', 0.45),
  ('AEVMRQRGINMRYLGKVLELVLRSPA [KIAA0664]', 0.52),
  ('GAQHSTMTSTLRRLGEDIFKGVVTKG [CCDC138]', 0.45);

(I) ISSLDLLPYGLRYILKVLKNSIHEKF [IQGAP2]
(II) ELLYGIWSNCLGLILDSFHMFFDSTA [SLC30A7]
[in] Which shows the larger SPOT signal as a fraction of Bim BH3's signal on the same receptor and array value: I or II ? // output: label of the selected item
[out] I
